targetUnderTest: T1, human NMI (N-myc Interacting protein), recombinant protein (human, UniProt Q13287 1-307, limits assumed)
T1 construct: Gene ID: 9111; also called hNMI; antigen
T1 sequence (looked up): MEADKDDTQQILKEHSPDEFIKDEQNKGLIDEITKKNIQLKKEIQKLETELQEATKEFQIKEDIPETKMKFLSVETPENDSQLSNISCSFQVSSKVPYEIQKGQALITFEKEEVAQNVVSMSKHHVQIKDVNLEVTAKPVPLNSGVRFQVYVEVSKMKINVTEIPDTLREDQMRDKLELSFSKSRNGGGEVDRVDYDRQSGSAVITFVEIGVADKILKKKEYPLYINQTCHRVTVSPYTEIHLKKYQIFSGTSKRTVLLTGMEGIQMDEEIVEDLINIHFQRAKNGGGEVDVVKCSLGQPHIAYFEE
assayRemarks: sandwich ELISA; detection 94C4-1-biotin 1µg/mL; hNMI 25,000.000 pg/mL
Entries annotated with measured OD450

- binder: "monoclonal antibody B-8 (antibody, V domains shown, Rabbit monoclonal antibody; also called B8-1) VH: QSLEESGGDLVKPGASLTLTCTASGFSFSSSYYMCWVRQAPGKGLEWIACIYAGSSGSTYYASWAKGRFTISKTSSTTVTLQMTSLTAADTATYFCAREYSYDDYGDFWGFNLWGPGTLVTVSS VL: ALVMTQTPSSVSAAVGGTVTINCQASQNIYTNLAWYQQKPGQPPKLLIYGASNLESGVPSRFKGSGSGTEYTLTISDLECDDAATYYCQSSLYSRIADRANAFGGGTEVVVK"
  displayUnit: "OD450"
  OD450: 2.79
- binder: "monoclonal antibody 98G10 (antibody, V domains shown, Rabbit monoclonal antibody) VH: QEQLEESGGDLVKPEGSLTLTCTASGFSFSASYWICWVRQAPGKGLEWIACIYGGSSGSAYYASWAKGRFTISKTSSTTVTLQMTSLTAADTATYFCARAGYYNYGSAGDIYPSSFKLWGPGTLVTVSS VL: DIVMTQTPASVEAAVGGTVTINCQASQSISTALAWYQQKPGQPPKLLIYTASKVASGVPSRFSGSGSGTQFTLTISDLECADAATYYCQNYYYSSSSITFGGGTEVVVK"
  displayUnit: "OD450"
  OD450: 2.74
- binder: "monoclonal antibody 39B4 (antibody, V domains shown, Rabbit monoclonal antibody; also called 39B4-1) VH: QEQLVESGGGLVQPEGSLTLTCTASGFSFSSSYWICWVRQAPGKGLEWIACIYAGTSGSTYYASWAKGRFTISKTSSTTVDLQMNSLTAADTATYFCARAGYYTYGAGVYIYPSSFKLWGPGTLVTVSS VL: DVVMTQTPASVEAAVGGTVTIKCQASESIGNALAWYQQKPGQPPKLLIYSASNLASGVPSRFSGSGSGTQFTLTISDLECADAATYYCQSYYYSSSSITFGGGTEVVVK"
  displayUnit: "OD450"
  OD450: 2.75
- binder: "monoclonal antibody 240B10-1 (antibody, V domains shown, Rabbit monoclonal antibody) VH: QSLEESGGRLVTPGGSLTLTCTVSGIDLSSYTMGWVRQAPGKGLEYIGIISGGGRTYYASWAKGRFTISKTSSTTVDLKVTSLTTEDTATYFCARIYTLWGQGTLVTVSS VL: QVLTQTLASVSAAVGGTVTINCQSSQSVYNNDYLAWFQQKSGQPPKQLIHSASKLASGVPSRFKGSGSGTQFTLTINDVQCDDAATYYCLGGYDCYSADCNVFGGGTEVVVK"
  displayUnit: "OD450"
  OD450: 2.75
